Provide the reported IC50 of each item.
- assayed target: neutral endopeptidase (NEP) (Homo sapiens, UniProt P08473)
- Sequence (P08473 whole entry, species assumed): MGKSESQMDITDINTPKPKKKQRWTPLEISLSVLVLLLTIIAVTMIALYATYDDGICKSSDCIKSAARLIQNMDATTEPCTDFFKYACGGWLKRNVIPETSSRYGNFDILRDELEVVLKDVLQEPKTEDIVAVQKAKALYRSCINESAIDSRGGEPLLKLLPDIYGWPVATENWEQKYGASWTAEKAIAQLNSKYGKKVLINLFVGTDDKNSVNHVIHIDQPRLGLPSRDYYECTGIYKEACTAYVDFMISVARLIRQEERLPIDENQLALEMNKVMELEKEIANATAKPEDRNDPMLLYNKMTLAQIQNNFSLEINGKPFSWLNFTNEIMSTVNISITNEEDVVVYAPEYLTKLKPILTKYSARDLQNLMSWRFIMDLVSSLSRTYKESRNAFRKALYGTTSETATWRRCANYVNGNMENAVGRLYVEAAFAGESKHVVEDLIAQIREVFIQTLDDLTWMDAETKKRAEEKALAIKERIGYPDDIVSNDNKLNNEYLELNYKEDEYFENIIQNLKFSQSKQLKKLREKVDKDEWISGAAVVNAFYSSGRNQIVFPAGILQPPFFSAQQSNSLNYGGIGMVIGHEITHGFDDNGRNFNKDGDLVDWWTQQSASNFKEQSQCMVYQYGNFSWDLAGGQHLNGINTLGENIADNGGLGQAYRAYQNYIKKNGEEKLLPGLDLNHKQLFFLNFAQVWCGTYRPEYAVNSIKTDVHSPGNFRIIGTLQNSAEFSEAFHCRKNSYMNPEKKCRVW
- experimental details: Inhibitory effect in vitro on neutral endopeptidase, [3H]-D-Ala2-Leu-encephalin as substrate
- Type: biochemical
- protocol conditions: in vitro
Field note: include the unit after the figure.

QUERY: Data request, read-out IC50, for Nc1ccc(CC(S)C(=O)NCC(=O)N2C(c3ccccc3)CC[C@H]2C(=O)O)cc1 (stereo partly shown)
RESULT: 1.8 nM

QUERY: Data request, read-out IC50, for Cc1ccc(C2CC[C@@H](C(=O)O)N2C(=O)CNC(=O)C(S)Cc2ccccc2)cc1 (stereo partly shown)
RESULT: 10 nM

QUERY: Data request, read-out IC50, for O=C(NCC(=O)N1C(c2ccccc2)CC[C@H]1C(=O)O)C(S)Cc1ccc(O)cc1 (stereo partly shown)
RESULT: 3.4 nM

QUERY: Data request, read-out IC50, for O=C(NCC(=O)N1C(c2ccccc2)CC[C@H]1C(=O)O)C(S)Cc1ccccc1 (stereo partly shown)
RESULT: 1.6 nM

----------
- assayed target: neutral endopeptidase (NEP) (Homo sapiens)
- experimental details: Inhibitory effect in vitro on neutral endopeptidase, [3H]-D-Ala2-Leu-encephalin as substrate
- Type: biochemical
- protocol conditions: in vitro
property: IC50
Field note: include the unit after the figure.

QUERY: Data request, read-out IC50, for O=C(NCC(=O)N1C(c2ccccc2O)CC[C@H]1C(=O)O)C(S)Cc1ccc(O)cc1 (stereo partly shown)
RESULT: 4.3 nM

QUERY: Data request, read-out IC50, for Cc1ccccc1C1CC[C@@H](C(=O)O)N1C(=O)CNC(=O)C(S)Cc1ccc(O)cc1 (stereo partly shown)
RESULT: 3.1 nM

QUERY: Data request, read-out IC50, for COc1ccc(CC(S)C(=O)NCC(=O)N2C(c3ccccc3O)CC[C@H]2C(=O)O)cc1 (stereo partly shown)
RESULT: 2.3 nM

QUERY: Data request, read-out IC50, for O=C(NCC(=O)N1C(c2ccccc2O)CC[C@H]1C(=O)O)C(S)Cc1ccccc1 (stereo partly shown)
RESULT: 1.1 nM

// data source = patent US5741781A
